- assayed-target: murine MEKK2 (mMEKK2) (Mus musculus, UniProt Q61083)
- Sequence (Q61083 1-619): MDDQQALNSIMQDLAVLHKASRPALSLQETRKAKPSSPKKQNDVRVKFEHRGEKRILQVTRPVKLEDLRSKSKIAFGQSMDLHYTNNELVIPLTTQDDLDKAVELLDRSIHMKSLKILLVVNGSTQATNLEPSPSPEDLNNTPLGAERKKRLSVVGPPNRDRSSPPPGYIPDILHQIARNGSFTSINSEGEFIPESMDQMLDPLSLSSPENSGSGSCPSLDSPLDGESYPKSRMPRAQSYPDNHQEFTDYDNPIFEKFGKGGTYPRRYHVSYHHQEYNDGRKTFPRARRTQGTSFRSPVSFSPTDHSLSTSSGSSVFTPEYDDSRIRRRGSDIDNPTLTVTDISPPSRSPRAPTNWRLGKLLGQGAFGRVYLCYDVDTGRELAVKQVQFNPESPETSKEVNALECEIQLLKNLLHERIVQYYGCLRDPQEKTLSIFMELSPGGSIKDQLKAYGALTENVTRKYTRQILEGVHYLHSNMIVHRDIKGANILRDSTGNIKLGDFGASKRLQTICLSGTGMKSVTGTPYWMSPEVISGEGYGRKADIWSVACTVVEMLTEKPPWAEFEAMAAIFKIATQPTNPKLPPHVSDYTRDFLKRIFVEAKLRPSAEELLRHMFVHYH
- method-summary: MEKK2 PhosphoELISA (mMEKK2/MKK4)
- Format: biochemical
- stated-conditions: substrate MKK4/SKK1 (unactive), ATP final 10 μM, O.D. 450 nm
pIC50: −log10 of the molar value.
Recorded pIC50, one value per entry.

Check out these entries, answers already filled in.
COc1cccc(-c2nc(SCc3cccc(NCc4cccc(Oc5ccc(Cl)cc5)c4)c3)[nH]c(=O)c2C#N)c1 [Example 1cc]    > 6.00
COc1cccc(-c2nc(SCc3cccc(NCc4cnc(O)nc4O)c3)[nH]c(=O)c2C#N)c1 [Example 4d]    < 4.40
COc1cccc(-c2nc(SCc3cccc(NCc4ccccc4)c3)[nH]c(=O)c2C#N)c1 [Example 1d]    > 5.30
N#Cc1c(-c2cccc([N+](=O)[O-])c2)nc(SCc2cccc(NC(=O)c3ccc(Cl)c(Cl)c3)c2)[nH]c1=O [Example 2ii]    > 6.00
N#Cc1c(-c2cccc(S(=O)(=O)NCc3ccccc3)c2)nc(SCc2cccc(NC(=O)c3ccc(Cl)c(Cl)c3)c2)[nH]c1=O [Example 4p]    > 5.30

Recorded pIC50 for N#Cc1c(-c2cccc(-c3cc4ccccc4[nH]3)c2)nc(SCc2cccc(NC(=O)c3ccc(Cl)c(Cl)c3)c2)[nH]c1=O [Example 2kk] with murine MEKK2 (mMEKK2) (Mus musculus, UniProt Q61083), please?
> 5.30

Recorded pIC50 for N#Cc1c(-c2c[nH]c3ccccc23)nc(SCc2cccc(NC(=O)c3ccc(Cl)c(Cl)c3)c2)[nH]c1=O [Example 2ll] with murine MEKK2 (mMEKK2) (Mus musculus, UniProt Q61083), please?
> 5.30
